What TGI was measured for each of the following?
- Test system: NCI-H23 lung
- assay_overview: NCI tumour cell line growth inhibition, 48 h

Incoming: Entry O=C1c2cc(I)ccc2N2CCN=C2N1Cc1ccccc1 : reported TGI = ?
Outgoing: > 100 µM

Incoming: Returns the measured TGI for the input compound. Input: N#CCCN(CCC#N)c1ccc(/C=C(/NC(=O)c2cc([N+](=O)[O-])ccc2Cl)C(=O)NN)cc1
Outgoing: > 100 µM

Incoming: Requested field: TGI. Item: O=C(CCC(=O)Nc1ccc(Cl)c(Cl)c1)CC(=O)c1ccc2ccccc2c1
Outgoing: > 100 µM

Incoming: # get_value(readout='TGI', item= CNS(=O)(=O)OCC1OC(n2cnc3cncnc32)C(O)C1O (stereo not given) )
Outgoing: > 100 µM

Incoming: What does the data say about its TGI? Entry: Cc1c(C(=O)O)n2c(=S)[nH]nc2c2ccccc12
Outgoing: > 100 µM

Incoming: Return reported TGI; argument: CSc1ncc2c(n1)-c1ccccc1OC2N1CCOCC1 (stereo not given)
Outgoing: > 100 µM

Incoming: Look up TGI for this compound: O=C(c1ccccc1)C(Cl)C(Cl)c1ccccc1 (stereo not given)
Outgoing: 12.8 µM

Incoming: I would be grateful if you could share the reported TGI for O=C1C(=c2ccc(=C3C(=O)c4ccc([N+](=O)[O-])cc4[N+]3=O)cc2)N([O-])c2cc([N+](=O)[O-])ccc21 .
Outgoing: > 100 µM

Incoming: Query: TGI; subject: O=C(Cc1nc2ccc(C(=O)c3ccccc3)cc2[nH]c1=O)C(=O)Nc1nc2ccccc2[nH]1
Outgoing: > 100 µM

Incoming: Quick check: TGI of COc1cc(-c2cc3ncccc3c3nc(OCCN(C)C)c4cccnc4c23)cc(OC)c1OC ?
Outgoing: 3.31 µM

Incoming: What value of TGI has been reported for the following compound? COc1cc(C2S/C(=C/c3ccccc3)C(=O)N2Cc2ccccc2)cc(OC)c1OC (stereo not given)
Outgoing: > 100 µM

Incoming: Given the compound CCn1c2nc(=O)n(CCCCCCCCSC(c3ccccc3)(c3ccccc3)c3ccccc3)c(=O)c-2nc2ccccc21 , what is its reported TGI?
Outgoing: > 100 µM

Incoming: I'd like to know its TGI. The compound in question is CN1CCN(C(=O)CCC(=O)Nc2cc3c(c4ccccc24)-c2ccc4ccccc4c2C3)CC1
Outgoing: 3.47 µM

Incoming: Could you tell me which TGI is on file for O=[N+]([O-])c1ccc(/C=C/c2nc3ccc(Cl)cc3[nH]2)cc1 ?
Outgoing: > 100 µM

Incoming: Using the record for Clc1ccc(CCNC2(c3cc4ccccc4s3)CCCCC2)cc1Cl , report its TGI.
Outgoing: > 100 µM

Incoming: # query: TGI of entry CCC(C)(C)c1cc(O)c(C(C)(C)CC)cc1O
Outgoing: 12.4 µM

Incoming: Would you mind telling me what TGI value was observed for COc1ccc2c(c1)CC[C@@H]1C2CC[C@]2(C)C(=O)N(CCN(C)C)C(=O)CC12 (stereo not given in full) ?
Outgoing: > 100 µM

Incoming: Returns the measured TGI for the input compound. Input: Cc1ncc([N+](=O)[O-])n1CC[N+](C)([O-])CCCCn1ccnc1[N+](=O)[O-] (stereo not given)
Outgoing: > 100 µM

Incoming: # query: TGI of entry COc1cccc2c1NC(=O)Cc1c-2[nH]c2ccccc12
Outgoing: > 100 µM

Incoming: I have this compound here, CCOP(=O)(CCCC(O)CNc1nc(N)nc(Cl)c1N=Nc1ccc(Cl)cc1)OCC (stereo not given) , and I need its recorded TGI.
Outgoing: 28 µM

Incoming: # input compound: COC(=O)Nc1nc2ccc(S(=O)(=O)Nc3ccccn3)cc2[nH]1 ; wanted: its TGI
Outgoing: > 100 µM

Incoming: Fill in: TGI of O=C(COc1ccccc1Cl)N1N=C(c2ccccc2)CC1(O)c1ccccc1 (stereo not given) is ___
Outgoing: 25.1 µM

Incoming: What value of TGI has been reported for the following compound? O=C(NC(=Nc1ccccc1)SCSC(=Nc1ccccc1)NC(=O)c1ccco1)c1ccco1
Outgoing: 80.6 µM

Incoming: What does the record list as TGI for COC(=O)CNC(=O)C(Cc1ccccc1)NC(=O)c1ccc(-c2ccc(Cl)cc2Cl)o1 (stereo not given) ?
Outgoing: > 100 µM

Incoming: Fill blank: measured TGI of the compound CC1(C)NC(=O)N(CCCCCCN2C(=O)NC(C)(C)C2=O)C1=O is ____.
Outgoing: > 100 µM

Values compiled from PubChem BioAssay (NCI).
